pKd tested on RAR α (Homo sapiens): recorded values
Sequence (P10276 whole entry): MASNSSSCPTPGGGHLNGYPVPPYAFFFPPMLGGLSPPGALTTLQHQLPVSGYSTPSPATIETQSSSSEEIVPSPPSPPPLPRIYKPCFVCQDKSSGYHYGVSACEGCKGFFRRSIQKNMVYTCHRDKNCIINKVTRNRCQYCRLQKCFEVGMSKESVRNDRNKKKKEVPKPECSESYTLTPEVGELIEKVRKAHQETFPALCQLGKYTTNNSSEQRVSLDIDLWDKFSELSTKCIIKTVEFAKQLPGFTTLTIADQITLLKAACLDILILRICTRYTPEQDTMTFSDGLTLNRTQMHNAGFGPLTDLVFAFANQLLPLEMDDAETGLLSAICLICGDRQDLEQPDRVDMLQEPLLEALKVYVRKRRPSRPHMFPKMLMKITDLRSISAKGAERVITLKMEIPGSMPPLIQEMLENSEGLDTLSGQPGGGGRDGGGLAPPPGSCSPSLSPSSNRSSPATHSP
Notebook: values listed as pKd are -log10 of the concentration (mol/L).

# COMPOUND, TARGET ENTITY, pKd
measured = [
    ("CC12CCC(C1)C1(C)Oc3ccc(C(=O)/C=C/c4ccc(C(=O)O)cc4)cc3C21C (single isomer, unassigned)", "RAR α (Homo sapiens)", 6.66),
]

Continue with the compound presented below.
// compound CC12CCC(C1)C1(C)Oc3ccc(C(=O)COc4ccc(C(=O)O)c(O)c4)cc3C21C (stereo not shown) , assay RAR α (Homo sapiens), pKd value: 5.60

----------
# TARGET ENTITY: RAR β (Homo sapiens, UniProt P10826)
# Sequence (P10826 1-448 isoform P10826-2): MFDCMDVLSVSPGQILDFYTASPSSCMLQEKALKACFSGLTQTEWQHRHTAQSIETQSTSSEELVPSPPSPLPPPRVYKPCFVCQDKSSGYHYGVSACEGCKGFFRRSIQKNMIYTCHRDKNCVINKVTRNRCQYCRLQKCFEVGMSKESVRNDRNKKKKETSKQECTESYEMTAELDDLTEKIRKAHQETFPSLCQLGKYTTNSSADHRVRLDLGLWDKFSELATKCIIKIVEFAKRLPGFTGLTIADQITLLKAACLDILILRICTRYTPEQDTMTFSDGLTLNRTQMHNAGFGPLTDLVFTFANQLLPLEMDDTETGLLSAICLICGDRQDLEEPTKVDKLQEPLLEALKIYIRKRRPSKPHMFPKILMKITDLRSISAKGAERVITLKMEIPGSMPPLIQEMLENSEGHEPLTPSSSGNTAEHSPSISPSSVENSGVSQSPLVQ
READOUT TYPE: Kd (nM)
Numeric answer only, unit nM assumed.

// molecule CC12CCC(C1)C1(C)Oc3ccc(C(=O)/C=C/c4ccc(C(=O)O)cc4)cc3C21C (single isomer, unassigned) , assay RAR β (Homo sapiens, UniProt P10826), Kd value: 53

The measurements presented in this section are drawn from patent US5747530A.
